test system: Malme-3M; test: NCI tumour cell line growth inhibition, 48 h
Calls of active or inactive are those of the source. No stated cut-off is given here; in the data, active = GI50 up to about 1.1 µM and inactive = higher.
Outcome codes: Yes (active), No (inactive)

>>> class_name("CC12CC3CC(C)(C1)CC(N=[N+]=[N-])(C3)C2")
"No"
>>> class_name("Cc1nc(-n2nc(-c3ccccc3)cc2-c2ccccc2)sc1C(=O)/C=C/c1ccccc1")
"No"
>>> class_name("C[C@@H]1S[C@H](c2ccccc2F)N2Cc3ccccc3N=C12")
"No"
>>> class_name("O=C(N/C(=C\\c1c(O)ccc2ccccc12)c1nc2ccccc2[nH]1)c1ccccc1")
"No"
>>> class_name("CC1(c2cccs2)CC(c2cccs2)=C(C#N)C(=C(C#N)C#N)N1 (stereo unspecified)")
"No"
>>> class_name("COC1CC(OC2C(C)OC(OC3C(C)OC(OC4C(O)CC(O[C@H]5CC[C@@]6(C)C(=CC[C@]7(O)[C@@H]6C[C@@H](OC(C)=O)[C@@]6(C)[C@]7(O)CC[C@@]6(O)C(C)=O)C5)OC4C)CC3OC)CC2OC)OC(C)C1O (stereo partly specified)")
"No"
>>> class_name("CC(=O)OC1C=C(C=O)C(O)(C=O)C2(C)CCCC(C)(C)C12 (stereo unspecified)")
"Yes"
>>> class_name("CS(=O)(=O)O[C@H]1[C@H](O)c2ccccc2[C@@H]1N=[N+]=[N-]")
"No"
>>> class_name("COc1ccccc1C#C/C=C\\C#Cc1ccccc1C#N")
"No"
>>> class_name("CC1=NN(C(=O)c2ccccc2O)C(=O)/C1=C/c1ccco1")
"No"
>>> class_name("COc1cc2c(cc1O)[C@]1(Cc3ccc4c(c3C1=O)OCO4)N(C)CC2")
"No"
>>> class_name("[N-]=[N+]=Nc1ccccc1C(=O)N1C(=O)c2ccccc2C(=O)N(C(=O)c2ccccc2N=[N+]=[N-])c2ccccc21")
"No"
>>> class_name("O=C(O)c1ccccc1/C=N\\N(CCO)C1=NCCN1")
"No"
>>> class_name("CN1CCc2c1nc(-c1ccccc1)c1c2N(C)CC1")
"No"
>>> class_name("CCOc1nc(OCC)nc(-c2cccn2-c2ccccc2)n1")
"No"
>>> class_name("O=C(c1ccncc1)n1nc(-c2ccccc2)c(/N=N/c2ccc([N+](=O)[O-])cc2)c1-c1ccccc1")
"No"

###

tested on: Malme-3M; test: NCI tumour cell line growth inhibition, 48 h
Calls of active or inactive are those of the source. Rule as the data show it: active = GI50 up to about 1.1 µM and inactive = higher.
Outcome codes: active, inactive

>>> class_name("COc1cc2c(cc1OC)-c1cc3cc(OC)c(OC)cc3c(C)[n+]1CC2.O=C([O-])CS(=O)(=O)O")
"inactive"
>>> class_name("O=c1[nH]c2cccc([N+](=O)[O-])c2c(=O)n1-c1ccc(Cl)cc1")
"inactive"
>>> class_name("CC(C)C1=CC(=O)C(C)(C2C(O)CC3(C)C4CC=C5C(CCC(OC6OC(CO)C(O)C(O)C6OC6OC(C)C(O)C(O)C6O)C5(C)C)C4(C)C(=O)CC23C)O1 (centres undefined)")
"inactive"
>>> class_name("CC(=O)Oc1c(C)c2c(O)c3c1C1=C(OCOC1=C(C)C3=O)/C(C)=C/C(C)(O)C(O)C(C)C(O)C1C(=O)OC(C(C)C1O)C(C)(O)/C=C\\C=C(C)C(=O)N2 (centres undefined)")
"inactive"
>>> class_name("CCOC(=O)C(CC(C)C)NC(=O)C(N)Cc1ccc(N(CCCl)CCCl)cc1 (centres undefined)")
"inactive"
>>> class_name("CCOC(=O)C1C(c2cc(OC)c(O)c(OC)c2)c2cc3c(cc2OC1(C)O)OCO3 (centres undefined)")
"inactive"
>>> class_name("CCc1cccc(C)c1NC(=O)CCc1nnc(S)[nH]1")
"inactive"
>>> class_name("CCOP(=O)(OCC)C(c1ccc(F)cc1)N(C(=O)NC(F)(F)F)c1cccc(C(F)(F)F)c1 (centres undefined)")
"inactive"
>>> class_name("O=C(C[n+]1ccccc1)NNC(=O)/C(=C/c1ccc2c(c1)OCO2)NC(=O)c1ccccc1")
"inactive"
>>> class_name("Oc1cc(Cc2ccccc2)c(Cc2ccccc2)cc1O")
"inactive"
>>> class_name("C=C1C(=O)O[C@H]2C/C(C)=C/CC[C@@]3(C)O[C@](C)(CC[C@@H]3I)[C@@H](I)C[C@@H]12")
"inactive"
>>> class_name("O=C1c2c(O)cccc2C(C2OC(CO)C(O)C(O)C2O)c2cc(CO)cc(O)c21 (centres undefined)")
"inactive"
>>> class_name("NC(=O)N/N=C(\\Cc1nc2ccc(C(=O)c3ccccc3)cc2nc1O)C(=O)Nc1ccc(Br)cc1")
"inactive"
>>> class_name("O=C1C=CC2OC(c3ccccc3)C(O)C2O1 (centres undefined)")
"inactive"
>>> class_name("CCN(CCCl)CCNc1c2ccccc2nc2ccc(OC)cc12")
"active"
>>> class_name("Cn1c(S)nnc1-c1csc(-c2ccc(Cl)cc2)n1")
"inactive"
>>> class_name("COc1cc2c(cc1OC)C1(c3ccc(Cl)cc3)ON=C(c3ccccc3)N1CS2 (centres undefined)")
"inactive"
>>> class_name("OCc1ccc2[n+](c1)CCC1c3ccccc3NC21 (centres undefined)")
"inactive"
>>> class_name("CC(CSC(=N)N)C(N)=O (centres undefined)")
"inactive"

###

system: M14; assay: NCI tumour cell line growth inhibition, 48 h
The source made the active and inactive calls. Cut-off read from the data, not from the text of the source: active = GI50 up to about 1.1 µM and inactive = higher.
Classes used: t for active, f for inactive

>>> class_name("N#CC(CC(=O)O)=C(c1ccccc1)c1ccccc1")
"f"
>>> class_name("O=c1ccn(C2OC(CN(O)CCC3C(O)C(CO)OC3n3ccc(=O)[nH]c3=O)C(O)C2O)c(=O)[nH]1 (stereo not drawn)")
"f"
>>> class_name("CC(=O)O[C@H]1C(=O)[C@@]2(C)C(C(OC(=O)c3ccccc3)[C@]3(O)CC(OC(=O)C(O)C(NC(=O)c4cccc(Cl)c4)c4ccccc4)C(C)=C1C3(C)C)[C@]1(OC(C)=O)CO[C@@H]1C[C@@H]2O (stereo partly drawn)")
"t"
>>> class_name("Oc1ccc2ccccc2c1/N=N/c1ccc(/N=N/c2ccccc2)cc1")
"f"
>>> class_name("CCOC(=O)C(CC(C)C)NC(=O)C(N)Cc1ccc(N(CCCl)CCCl)cc1 (stereo not drawn)")
"f"
>>> class_name("OC[C@H]1O[C@@H](n2cnc3c(S)ncnc32)[C@H](O)[C@@H]1O [THIOINOSINE]")
"f"
>>> class_name("COc1ccc(C2C(=O)C(Cl)N2Nc2nc(C)cc(O)n2)cc1OC (stereo not drawn)")
"f"
>>> class_name("Cc1cc2c(c(C(=O)NCC(=O)N[C@@H](C)C(=O)OCc3ccccc3)c1)Oc1c(cc(C)cc1C(=O)NCC(=O)N[C@@H](C)C(=O)OCc1ccccc1)S2")
"f"

###

test system: HOP-18; assay: NCI tumour cell line growth inhibition, 48 h
The source made the active and inactive calls. Rule as the data show it: active = GI50 up to about 1.1 µM and inactive = higher.
Classes used: Y (active), N (inactive)

>>> class_name("O=C1C=CC2OC(c3ccccc3)C(O)C2O1 (stereo not given)")
"Y"
>>> class_name("O=C(N/C(=C\\c1c(O)ccc2ccccc12)c1nc2ccccc2[nH]1)c1ccccc1")
"N"
>>> class_name("NNC(=O)C(=O)N/N=C(\\CCCC(=O)Nc1ccc(Cl)cc1)CC(=O)c1ccc(F)cc1")
"N"
>>> class_name("CC12CC3CC(C)(C1)CC(N=[N+]=[N-])(C3)C2")
"N"
>>> class_name("FC(F)(F)c1cccc2ns[s+]c12")
"N"
>>> class_name("CC(C)(C)C1CCC2c3c([nH]c4ccccc34)C3C(=O)N(c4ccccc4)C(=O)C3C2C1 (stereo not given)")
"N"
>>> class_name("CC(=O)CCCCCCCCCCCC[C@@H]1CC[C@H](C)[C@H](O)N1")
"N"
>>> class_name("CCOc1ccc(OP2(=O)NC(=O)C=C(C)N2)cc1 (stereo not given)")
"N"
>>> class_name("COC(=O)C[C@](O)(CCCC(C)(C)O)C(=O)O[C@@H]1C(OC)=C[C@]23CCCN2CCc2cc4c(cc2[C@H]13)OCO4 [OMACETAXINE MEPESUCCINATE]")
"Y"
>>> class_name("CC(=O)O/N=C(Cl)/C(Cl)=N/OC(C)=O")
"N"

###

tested on: K562; assay: NCI tumour cell line growth inhibition, 48 h
Calls of active or inactive are those of the source. Cut-off read from the data, not from the text of the source: active = GI50 up to about 1.1 µM and inactive = higher.
endpoint.name: GI50

>>> measured_value("Clc1cccc(-c2sc(-c3cccs3)cc2Cc2cccs2)c1")
"> 10 µM (inactive)"
>>> measured_value("COC(=O)[C@]12CSC[C@H]1C[C@H](c1ccc(N(C)C)cc1)N2")
"> 100 µM (inactive)"
>>> measured_value("CC(C)(C)c1cc(CCCCCCCC2(CCCCCCCc3cc(C(C)(C)C)cc(C(C)(C)C)c3)OC(COCCOCCCCCC#N)C(COCCOCCCCCC#N)O2)cc(C(C)(C)C)c1 (centres undefined)")
"> 100 µM (inactive)"
>>> measured_value("CC1(C)Oc2ccc(Cl)cc2C12CC2")
"15.5 µM (inactive)"
